molecular target: full-length ATR (Homo sapiens); construct: Assays were carried out at 25° C. in the presence of 5 nM full-length ATR; assay: ATR inhibition assay, radioactive-phosphate incorporation; conditions: Ki(app); 5 nM full-length ATR, 10 μM ATP, 800 μM target peptide, 25° C.
Sequence (Q13535 whole entry): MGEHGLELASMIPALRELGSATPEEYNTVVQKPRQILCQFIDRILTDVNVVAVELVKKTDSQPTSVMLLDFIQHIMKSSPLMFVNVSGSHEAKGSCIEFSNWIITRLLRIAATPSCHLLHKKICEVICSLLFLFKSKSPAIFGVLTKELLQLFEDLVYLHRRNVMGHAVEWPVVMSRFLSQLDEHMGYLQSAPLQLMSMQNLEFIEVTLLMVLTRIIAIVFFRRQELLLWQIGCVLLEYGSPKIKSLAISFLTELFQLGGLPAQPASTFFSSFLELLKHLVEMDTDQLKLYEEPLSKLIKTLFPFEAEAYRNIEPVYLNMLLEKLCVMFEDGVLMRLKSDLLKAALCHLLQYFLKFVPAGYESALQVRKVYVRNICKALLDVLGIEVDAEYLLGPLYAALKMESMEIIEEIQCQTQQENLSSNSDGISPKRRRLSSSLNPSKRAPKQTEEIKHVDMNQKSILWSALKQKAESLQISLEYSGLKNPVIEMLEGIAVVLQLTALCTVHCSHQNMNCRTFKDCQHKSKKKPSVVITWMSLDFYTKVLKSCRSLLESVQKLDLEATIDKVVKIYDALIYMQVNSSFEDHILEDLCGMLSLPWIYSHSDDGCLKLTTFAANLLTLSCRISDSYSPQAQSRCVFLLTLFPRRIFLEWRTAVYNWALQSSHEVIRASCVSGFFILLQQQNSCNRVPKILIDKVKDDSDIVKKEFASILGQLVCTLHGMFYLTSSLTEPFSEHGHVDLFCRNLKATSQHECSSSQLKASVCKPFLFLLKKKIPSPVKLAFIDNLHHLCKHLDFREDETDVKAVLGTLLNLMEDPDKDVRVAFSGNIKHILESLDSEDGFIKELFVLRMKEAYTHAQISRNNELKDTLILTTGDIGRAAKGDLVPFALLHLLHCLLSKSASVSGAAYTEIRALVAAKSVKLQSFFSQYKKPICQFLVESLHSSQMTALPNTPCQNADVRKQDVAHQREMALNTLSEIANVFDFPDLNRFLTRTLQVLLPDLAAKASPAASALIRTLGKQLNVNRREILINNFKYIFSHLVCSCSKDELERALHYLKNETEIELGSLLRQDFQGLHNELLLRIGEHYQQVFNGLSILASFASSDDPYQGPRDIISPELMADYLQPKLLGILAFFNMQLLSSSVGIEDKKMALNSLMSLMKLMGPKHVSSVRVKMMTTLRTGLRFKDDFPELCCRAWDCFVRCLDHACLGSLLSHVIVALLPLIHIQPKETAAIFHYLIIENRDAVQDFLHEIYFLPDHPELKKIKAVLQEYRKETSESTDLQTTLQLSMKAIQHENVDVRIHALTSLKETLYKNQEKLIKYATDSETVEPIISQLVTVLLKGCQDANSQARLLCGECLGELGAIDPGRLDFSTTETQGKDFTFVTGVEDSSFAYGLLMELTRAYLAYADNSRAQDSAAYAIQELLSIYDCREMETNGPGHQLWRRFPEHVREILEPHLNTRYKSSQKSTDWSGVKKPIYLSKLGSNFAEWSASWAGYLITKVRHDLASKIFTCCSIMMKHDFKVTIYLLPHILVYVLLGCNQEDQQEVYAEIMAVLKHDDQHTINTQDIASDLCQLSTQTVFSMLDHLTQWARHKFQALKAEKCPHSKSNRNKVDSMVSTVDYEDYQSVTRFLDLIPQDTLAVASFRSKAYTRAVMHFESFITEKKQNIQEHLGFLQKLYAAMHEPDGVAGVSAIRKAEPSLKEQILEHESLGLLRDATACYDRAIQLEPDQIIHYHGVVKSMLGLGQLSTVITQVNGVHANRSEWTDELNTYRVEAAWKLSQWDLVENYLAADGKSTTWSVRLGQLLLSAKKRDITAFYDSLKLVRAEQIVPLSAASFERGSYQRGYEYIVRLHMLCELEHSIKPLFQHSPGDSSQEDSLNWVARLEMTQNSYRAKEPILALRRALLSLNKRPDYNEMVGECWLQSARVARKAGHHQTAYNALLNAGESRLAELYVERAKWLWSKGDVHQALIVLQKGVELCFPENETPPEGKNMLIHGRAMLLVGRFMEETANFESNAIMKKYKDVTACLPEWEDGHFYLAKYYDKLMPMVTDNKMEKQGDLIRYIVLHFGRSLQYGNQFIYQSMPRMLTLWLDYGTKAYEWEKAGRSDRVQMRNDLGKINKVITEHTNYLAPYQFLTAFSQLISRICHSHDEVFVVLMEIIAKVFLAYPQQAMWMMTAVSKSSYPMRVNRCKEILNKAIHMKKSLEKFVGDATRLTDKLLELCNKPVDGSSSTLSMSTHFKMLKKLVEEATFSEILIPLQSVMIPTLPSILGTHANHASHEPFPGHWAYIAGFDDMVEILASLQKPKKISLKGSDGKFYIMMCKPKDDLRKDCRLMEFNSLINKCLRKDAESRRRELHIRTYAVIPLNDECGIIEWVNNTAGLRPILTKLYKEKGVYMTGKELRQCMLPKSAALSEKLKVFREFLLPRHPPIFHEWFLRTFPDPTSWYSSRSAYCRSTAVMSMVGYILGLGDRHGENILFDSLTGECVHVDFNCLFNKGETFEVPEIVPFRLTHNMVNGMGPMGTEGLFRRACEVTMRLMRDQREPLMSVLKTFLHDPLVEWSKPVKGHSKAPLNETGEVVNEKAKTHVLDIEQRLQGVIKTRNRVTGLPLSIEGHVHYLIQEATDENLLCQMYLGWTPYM
Listing: pKi of selected molecules
Note: pKi values are expressed as the negative base-10 logarithm of concentration in M.

The following molecules have reported results that may help.
{"columns": ["molecule", "pKi"],
 "data": [
  ["CC(C)S(=O)(=O)c1ccc(-c2cnc(N)c(-c3cc(-c4ccc(NCCN(C)C)cc4)no3)n2)cc1", 9.39],
  ["CC(C)S(=O)(=O)c1ccc(-c2cnc(N)c(-c3cc(-c4ccc(NC[C@H]5CCCN5)cc4)no3)n2)cc1", 9.46],
  ["CC(C)S(=O)(=O)c1ccc(-c2cnc(N)c(-c3cc(-c4ccc(NCC5CCN5)cc4)no3)n2)cc1 (stereo not drawn)", 9.22],
  ["CC(C)S(=O)(=O)c1ccc(-c2cnc(N)c(-c3cc(-c4ccc(NCC5CCCCN5)cc4)no3)n2)cc1 (stereo not drawn)", 9.20]
]}

# context switch: different molecule, same pKi
Item "CC(C)S(=O)(=O)c1ccc(-c2cnc(N)c(-c3cc(-c4ccc(NC[C@@H]5CCCN5)cc4)no3)n2)cc1" has what recorded pKi?
9.31
